Values were extracted from ChEMBL document CHEMBL1821567.

- Tested on: Penicillium decumbens
- Experiment Summary: Inhibition of Penicillium decumbens naringinase at 1 mg/ml after 10 to 20 mins
Calls of active or inactive are those of the source. The calls are words filed in the database; no cut-off is given here.
Observation Type: inhibition

CCCCN1C[C@@H](CO)O[C@H](OC)C1 : 7%
CCCCCCCCN1C[C@@H](CO)O[C@H](OC)C1 : inactive
CO[C@H]1O[C@H](CO)CNC[C@H]1O : inactive
CCCN1C[C@@H](CO)O[C@H](OC)[C@H](O)C1 : inactive
COC(=O)C(Cc1ccc(O)cc1)N1C[C@@H](CO)O[C@H](OC)[C@H](O)C1 (some centres not stated) : inactive
COC(=O)C(C)N1C[C@@H](CO)O[C@H](OC)C1 (some centres not stated) : inactive
COC(=O)CN1C[C@@H](CO)O[C@H](OC)C1 : inactive
COC(=O)CN1C[C@@H](CO)O[C@H](OC)[C@H](O)C1 : inactive
CO[C@@H]1CN(C)C[C@@H](CO)O1 : inactive
COC(=O)C(Cc1ccccc1)N1C[C@@H](CO)O[C@H](OC)C1 (some centres not stated) : inactive
CCCN1C[C@@H](CO)O[C@H](OC)C1 : 9%
CO[C@H]1O[C@H](CO)CN(Cc2ccccc2)C[C@H]1O : inactive

====

- Test system: Saccharomyces cerevisiae
- Experiment Summary: Inhibition of Saccharomyces cerevisiae alpha-D-glucosidase at 1 mg/ml after 10 to 20 mins
Activity calls are given as the source filed them. The calls are words filed in the database; no cut-off is given here.
Observation Type: inhibition

CCCCCCCCN1C[C@@H](CO)O[C@H](OC)[C@H](O)C1 : inactive
COC(=O)C(Cc1ccccc1)N1C[C@@H](CO)O[C@H](OC)C1 (some centres not stated) : inactive
CO[C@@H]1CN(C)C[C@@H](CO)O1 : 24%
CCCN1C[C@@H](CO)O[C@H](OC)[C@H](O)C1 : 10%
CCCCN1C[C@@H](CO)O[C@H](OC)C1 : inactive
CCCN1C[C@@H](CO)O[C@H](OC)C1 : 8%
COC(=O)C(Cc1ccc(O)cc1)N1C[C@@H](CO)O[C@H](OC)[C@H](O)C1 (some centres not stated) : inactive
COC(=O)C(C)N1C[C@@H](CO)O[C@H](OC)C1 (some centres not stated) : inactive
CO[C@H]1O[C@H](CN2C[C@@H](CO)O[C@H](OC)[C@H](O)C2)[C@@H](OCc2ccccc2)[C@H](OCc2ccccc2)[C@H]1OCc1ccccc1 : inactive
COC(=O)C(C)N1C[C@@H](CO)O[C@H](OC)[C@H](O)C1 (some centres not stated) : inactive
COC(=O)C(Cc1ccc(O)cc1)N1C[C@@H](CO)O[C@H](OC)C1 (some centres not stated) : inactive
CO[C@@H]1CNC[C@@H](CO)O1 : inactive
COC(=O)CN1C[C@@H](CO)O[C@H](OC)[C@H](O)C1 : inactive
CO[C@H]1O[C@H](CO)CN(O)C[C@H]1O : inactive
COC(=O)C(Cc1ccccc1)N1C[C@@H](CO)O[C@H](OC)[C@H](O)C1 (some centres not stated) : inactive
CO[C@H]1O[C@H](CO)CN(Cc2ccccc2)C[C@H]1O : inactive
CO[C@@H]1CN(C[C@H]2O[C@H](OC)[C@H](O)[C@@H](O)[C@@H]2O)C[C@@H](CO)O1 : 77%
CCCCN1C[C@@H](CO)O[C@H](OC)[C@H](O)C1 : 8%
CCCCCCCCN1C[C@@H](CO)O[C@H](OC)C1 : inactive
CO[C@@H]1CN(O)C[C@@H](CO)O1 : 58%
CO[C@H]1O[C@H](CO)CNC[C@H]1O : inactive
COC(=O)CN1C[C@@H](CO)O[C@H](OC)C1 : inactive

====

- Test system: Geobacillus stearothermophilus
- Experiment Summary: Inhibition of Bacillus stearothermophilus alpha-D-glucosidase at 1 mg/ml after 10 to 20 mins
Activity calls are given as the source filed them. The rule behind the calls is not given here.
Observation Type: inhibition

COC(=O)C(Cc1ccccc1)N1C[C@@H](CO)O[C@H](OC)[C@H](O)C1 (stereo not given in full) : inactive
CO[C@H]1O[C@H](CO)CNC[C@H]1O : 8%
CO[C@H]1O[C@H](CO)CN(O)C[C@H]1O : inactive
CO[C@H]1O[C@H](CO)CN(Cc2ccccc2)C[C@H]1O : inactive
COC(=O)C(C)N1C[C@@H](CO)O[C@H](OC)C1 (stereo not given in full) : inactive
